# Format: in vivo, human
# measurement context: human, plasma, po, 20 mg
endpoint label: Cmax (nM)
Value expressed in nM; do not type the unit.

## Input What Cmax value was documented for this compound, Cc1ccc(-n2nccn2)c(C(=O)N2CCN(c3nc4cc(Cl)ccc4o3)CC[C@H]2C)c1 [Suvorexant, suvorexant] ?
## Output 620

---

# Format: in vivo, human
# measurement context: human, plasma, po, 40 mg
endpoint label: Cmax (nM)
Output spec: scalar in nM, unitless text.

## Input Consider the compound Cc1ccc(-n2nccn2)c(C(=O)N2CCN(c3nc4cc(Cl)ccc4o3)CC[C@H]2C)c1 [Suvorexant, suvorexant] and give its measured Cmax.
## Output 850

---

# Type: in vivo, human
# measurement context: human, plasma, po, 4 mg
endpoint label: half-life (h)
Write it as a number; the unit h goes unstated.

## Input Consider the molecule shown here: Cc1ccc(-n2nccn2)c(C(=O)N2CCN(c3nc4cc(Cl)ccc4o3)CC[C@H]2C)c1 What is its recorded half-life?
## Output 11.2

---

# Assay type: in vivo, human
# measurement context: human, plasma, po, 4 mg
endpoint label: Cmax (nM)
Your answer is read as nM, so omit the unit and give the number.

## Input Find the recorded Cmax belonging to Cc1ccc(-n2nccn2)c(C(=O)N2CCN(c3nc4cc(Cl)ccc4o3)CC[C@H]2C)c1 [Suvorexant, suvorexant] and report it.
## Output 280

---

# Assay type: in vivo, human
# measurement context: human, plasma, po, 20 mg
endpoint label: half-life (h)
The reply should contain only the number, in h.

## Input Entry Cc1ccc(-n2nccn2)c(C(=O)N2CCN(c3nc4cc(Cl)ccc4o3)CC[C@H]2C)c1 [Suvorexant, suvorexant] has what half-life?
## Output 12.4

---

# Assay type: in vivo, human
# measurement context: human, plasma, po, 40 mg
endpoint label: AUC(0-inf) (µM·h)
Write the number in µM·h without appending the unit.

## Input # query: AUC(0-inf) of entry Cc1ccc(-n2nccn2)c(C(=O)N2CCN(c3nc4cc(Cl)ccc4o3)CC[C@H]2C)c1
## Output 13.6

---

# Type: in vivo, human
# measurement context: human, plasma, po, 4 mg
endpoint label: AUC(0-inf) (µM·h)
Give the number; µM·h is assumed, so skip it.

## Input Which AUC(0-inf) is listed for Cc1ccc(-n2nccn2)c(C(=O)N2CCN(c3nc4cc(Cl)ccc4o3)CC[C@H]2C)c1 ?
## Output 2.61

Each recorded value in this set is attributed to paper PMC6929321.
